Entry source: paper PMC4684500

System: Bacillus cereus NCDC-0240
Format: cell-based
Conditions: NCDC-0240, 24 h
Where no end group is shown, it is not given here.
What MIC was measured for each of the following?
Include the unit after the number when you answer.

Reported MIC for Bacillus cereus NCDC-0240, given RIRFPWPWRWPWWPRFRG [buCATHL4D] ?
1.5 µM

Reported MIC for Bacillus cereus NCDC-0240, given GLPWILLRWLFFRG [buCATHL4A] ?
100 µM

Recorded MIC for AIPWSIWWRLLFKG [buCATHL4F] with Bacillus cereus NCDC-0240, please?
100 µM

Fill in the recorded MIC for this sequence, with Bacillus cereus NCDC-0240 as test system: AIPWSIWWHLLFKG [buCATHL4G]
50 µM

Item RIRFPWPWRWPWWRRVRG [buCATHL4C] with Bacillus cereus NCDC-0240 - MIC?
0.8 µM
